- target-system: T1, PC1, P29120
- T1 chain: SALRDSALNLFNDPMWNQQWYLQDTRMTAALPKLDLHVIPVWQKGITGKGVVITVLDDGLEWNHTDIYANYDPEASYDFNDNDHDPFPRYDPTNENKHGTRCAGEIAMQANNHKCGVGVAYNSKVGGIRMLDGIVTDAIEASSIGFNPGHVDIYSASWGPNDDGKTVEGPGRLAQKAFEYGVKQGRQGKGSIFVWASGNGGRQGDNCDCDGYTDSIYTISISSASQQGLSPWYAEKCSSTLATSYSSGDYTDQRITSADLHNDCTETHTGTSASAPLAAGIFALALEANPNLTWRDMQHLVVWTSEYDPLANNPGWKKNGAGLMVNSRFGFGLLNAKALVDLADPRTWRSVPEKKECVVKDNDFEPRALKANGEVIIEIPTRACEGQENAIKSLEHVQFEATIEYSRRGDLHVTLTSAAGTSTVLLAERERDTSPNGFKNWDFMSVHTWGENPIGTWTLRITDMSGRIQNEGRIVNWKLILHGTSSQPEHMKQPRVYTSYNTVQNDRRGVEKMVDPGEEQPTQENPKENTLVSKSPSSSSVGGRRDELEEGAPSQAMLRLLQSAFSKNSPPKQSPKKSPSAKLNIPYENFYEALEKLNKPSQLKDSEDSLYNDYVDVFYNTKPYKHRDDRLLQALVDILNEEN
- condition-details: modification not given
quantity-measured: Ki (µM)

                     binder  quantitative_readout
0  RRRRR [Penta-L-arginine]                    14
